The origin of these recorded values is patent US20020182655A1.

measurement.target: hGPR 6 (Homo sapiens, UniProt P46095)
Sequence (P46095 whole entry): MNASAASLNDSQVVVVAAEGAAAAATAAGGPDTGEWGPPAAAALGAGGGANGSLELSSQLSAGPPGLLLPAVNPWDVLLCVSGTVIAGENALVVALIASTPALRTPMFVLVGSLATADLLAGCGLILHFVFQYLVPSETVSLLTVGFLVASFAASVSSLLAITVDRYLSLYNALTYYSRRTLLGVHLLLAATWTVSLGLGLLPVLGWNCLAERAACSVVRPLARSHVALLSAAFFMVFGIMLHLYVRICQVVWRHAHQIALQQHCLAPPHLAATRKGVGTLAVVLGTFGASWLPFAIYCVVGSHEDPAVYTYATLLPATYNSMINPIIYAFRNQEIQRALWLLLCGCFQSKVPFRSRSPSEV
assay: Ca2+ FLIPR assay in HEK293 cells transiently transfected with hGPR 6
conditions.used: Ca2+ FLIPR
readout.type: EC50

Bench note, hGPR 6 (Homo sapiens, UniProt P46095): entry CCCCCCCCCCCCC/C=C/[C@@H](O)[C@@H](N)COP(=O)(O)O [S1P, sphingosine 1-phosphate] , its EC50 = < 0.1 µM
